Recorded IC50 by entry
# System: SW780 bladder cancer cell line
# Experiment notes: Cell viability by MTT incorporation, SW780 bladder cancer cells
# Format: cell-based, human
# Cond: Homo sapiens; SW780 cells, 24 hours treatment, MTT incorporation; read-out: SW780 IC50
I only need the number, in mM, no unit after it.

# Molecule, Measured on, Measurement unit, IC50
measured = [
    ("CCCC(CCC)C(=O)O", "SW780 bladder cancer cell line", "mM", 6.04),
]

# next molecule below
Exercise: Please indicate recorded IC50 of CC(C)[C@H](C(=O)Nc1ccc(C(=O)NO)cc1)c1ccccc1 measured with SW780 bladder cancer cell line.
Key: 0.00141
